- testedTarget: CCR2 (Homo sapiens, UniProt P41597)
- Sequence (P41597 whole entry): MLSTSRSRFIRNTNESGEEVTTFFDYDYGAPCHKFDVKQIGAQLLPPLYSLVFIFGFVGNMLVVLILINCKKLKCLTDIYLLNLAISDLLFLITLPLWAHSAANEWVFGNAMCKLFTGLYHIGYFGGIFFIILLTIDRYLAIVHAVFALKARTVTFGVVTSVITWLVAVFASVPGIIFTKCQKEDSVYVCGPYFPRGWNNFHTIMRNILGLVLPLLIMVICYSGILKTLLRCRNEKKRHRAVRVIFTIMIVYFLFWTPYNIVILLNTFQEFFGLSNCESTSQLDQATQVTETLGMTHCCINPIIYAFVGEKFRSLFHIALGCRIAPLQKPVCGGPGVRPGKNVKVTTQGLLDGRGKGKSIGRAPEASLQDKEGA
- procedureDetails: calcium flux assay
- conditionInfo: read-out: IC50 Ca++ flux
Catalogue of IC50 readings, one per entry.

Use the examples below as a reference point.
Incoming: Using known records, supply IC50 for CC(C)CC1(C(=O)NCc2cc(C(F)(F)F)cc(C(F)(F)F)c2)CCN(CCN2CCCCC2)CC1 [Example 18]
Outgoing: > 1000 nM

Incoming: Using known records, supply IC50 for CCS(=O)(=O)NC(=O)c1cc(CN2CCC(CC3CC3)(C(=O)NCc3cc(C(F)(F)F)cc(C(F)(F)F)c3)CC2)ccc1F [Example 64]
Outgoing: 200 to 1000 nM

Incoming: Using known records, supply IC50 for CC(C)CC1(C(=O)N[C@@H](C)c2cc(C(F)(F)F)cc(C(F)(F)F)c2)CCN(Cc2ccc3c(c2)OCO3)CC1 [Example 45]
Outgoing: > 1000 nM

With those in mind, consider the next compound.
Incoming: Using known records, supply IC50 for CC(C)CC1(C(=O)NCc2cc(C(F)(F)F)cc(C(F)(F)F)c2)CCN(C2CCC(O)(c3ccc4c(c3)OCO4)CC2)CC1 (stereo not shown) [Example 26]
Outgoing: 200 to 1000 nM

meta.source: patent US20100210633A1
